Read-out record for UniProt Q2PCB5: Ki
Sequence (Q2PCB5 whole entry): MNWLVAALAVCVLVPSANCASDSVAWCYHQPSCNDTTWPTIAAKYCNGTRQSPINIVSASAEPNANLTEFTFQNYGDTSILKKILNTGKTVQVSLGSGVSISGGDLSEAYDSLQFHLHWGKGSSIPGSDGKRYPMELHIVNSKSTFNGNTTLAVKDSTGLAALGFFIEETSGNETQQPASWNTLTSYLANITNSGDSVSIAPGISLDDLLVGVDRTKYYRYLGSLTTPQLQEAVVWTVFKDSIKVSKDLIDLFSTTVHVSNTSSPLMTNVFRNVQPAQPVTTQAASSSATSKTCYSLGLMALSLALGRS
value_type: Ki (µM)

compound=O=C(O)c1cc(O)c(O)c(O)c1 value_type=Ki observed_measurement=4.13
compound="Oc1ccc(O)cc1 [HYDROQUINONE]" value_type=Ki observed_measurement=5.93
compound=O=C(O)c1ccc(O)c(O)c1 value_type=Ki observed_measurement=3.21
compound=O=C(OC[C@H]1O[C@@H](OC(=O)c2cc(O)c(O)c(OC(=O)c3cc(O)c(O)c(O)c3)c2)[C@H](OC(=O)c2cc(O)c(O)c(OC(=O)c3cc(O)c(O)c(O)c3)c2)[C@@H](OC(=O)c2cc(O)c(O)c(OC(=O)c3cc(O)c(O)c(O)c3)c2)[C@@H]1OC(=O)c1cc(O)c(O)c(OC(=O)c2cc(O)c(O)c(O)c2)c1)c1cc(O)c(O)c(OC(=O)c2cc(O)c(O)c(O)c2)c1 value_type=Ki observed_measurement=9.41
compound=Oc1ccccc1O value_type=Ki observed_measurement=14.8
compound="O=C(O)c1cccc(O)c1 [3-HYDROXYBENZOIC ACID]" value_type=Ki observed_measurement=98.3
compound=Oc1ccccc1 value_type=Ki observed_measurement=13.7
compound=O=C(O)c1ccccc1O value_type=Ki observed_measurement=324
compound="O=C(O)c1cc(O)cc(O)c1 [3,5-DIHYDROXYBENZOIC ACID]" value_type=Ki observed_measurement=2.13

---

- target_under_test: Carbonic anhydrase 6 (Homo sapiens)
- Sequence (P23280 whole entry): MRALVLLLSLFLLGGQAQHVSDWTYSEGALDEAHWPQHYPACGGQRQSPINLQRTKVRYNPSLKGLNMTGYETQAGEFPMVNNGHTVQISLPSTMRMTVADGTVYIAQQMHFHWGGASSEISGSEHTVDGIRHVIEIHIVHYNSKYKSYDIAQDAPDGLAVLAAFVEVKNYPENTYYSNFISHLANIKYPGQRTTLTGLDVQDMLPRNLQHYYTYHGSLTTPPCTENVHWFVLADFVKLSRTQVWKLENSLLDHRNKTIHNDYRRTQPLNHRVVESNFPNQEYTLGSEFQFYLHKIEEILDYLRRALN
value_type: Ki (µM)

compound="O=C(O)c1cccc(O)c1 [3-HYDROXYBENZOIC ACID]" target_under_test="Carbonic anhydrase 6 (Homo sapiens)" value_type=Ki observed_measurement=3.17

---

- target_under_test: Carbonic anhydrase 1 (Homo sapiens)
- Sequence (P00915 whole entry): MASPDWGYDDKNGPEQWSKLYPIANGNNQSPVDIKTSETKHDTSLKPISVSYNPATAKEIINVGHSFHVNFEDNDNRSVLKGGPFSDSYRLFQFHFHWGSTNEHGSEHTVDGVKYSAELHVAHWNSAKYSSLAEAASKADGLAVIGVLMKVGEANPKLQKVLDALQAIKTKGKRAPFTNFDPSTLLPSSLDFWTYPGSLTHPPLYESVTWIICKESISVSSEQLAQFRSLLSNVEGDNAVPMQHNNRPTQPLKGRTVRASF
- test_details: Inhibition of human CA1 using 4-nitrophenylacetate substrate by esterase assay
value_type: Ki (µM)

chemical_smiles=Oc1cccc(O)c1O target_under_test="Carbonic anhydrase 1 (Homo sapiens)" observed_measurement=7.41
